- targetEntity: Mu-type opioid receptor (Homo sapiens, UniProt P35372)
- Sequence (P35372 whole entry): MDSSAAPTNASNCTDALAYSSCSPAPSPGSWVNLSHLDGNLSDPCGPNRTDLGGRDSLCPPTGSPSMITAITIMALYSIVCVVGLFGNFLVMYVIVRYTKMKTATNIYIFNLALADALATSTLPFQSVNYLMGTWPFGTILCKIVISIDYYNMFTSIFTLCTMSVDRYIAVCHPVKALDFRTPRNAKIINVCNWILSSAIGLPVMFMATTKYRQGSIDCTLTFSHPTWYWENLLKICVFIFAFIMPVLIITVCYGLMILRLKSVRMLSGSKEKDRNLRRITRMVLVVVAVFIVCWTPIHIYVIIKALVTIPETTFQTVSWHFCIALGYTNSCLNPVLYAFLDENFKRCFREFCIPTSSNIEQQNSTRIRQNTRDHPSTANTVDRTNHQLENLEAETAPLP
- assay: Partial agonist activity at human mu opioid receptor expressed in CHO cells assessed as [35S]GTPgammaS binding after 60 mins by scintillation counting
- Assay type: functional, cell-based
Readings of pEC50 for the listed compounds
Please report pEC50 as the negative decimal logarithm of the molar concentration, giving only the number.

Consider the worked cases shown below.
>>> print(df.to_string())
                                   compound                              targetentity  measure  value
0  CC(C)Oc1ccc(-c2ccc(CCNC(=O)c3ccc4c(c3)C3(C)CCN(CC5CC5)C(C4)C3C)cc2)cc1 (racemic)  Mu-type opioid receptor (Homo sapiens, UniProt P35372)    pEC50   8.64
1  CC1C2Cc3ccc(C(=O)NCCc4ccc(-c5ccccc5O)cc4)cc3C1(C)CCN2CC1CC1 (racemic)  Mu-type opioid receptor (Homo sapiens, UniProt P35372)    pEC50   8.82

Now for the compound whose pEC50 we want.
Query: Would you please give the reported pEC50 of COc1ccc(-c2ccc(CCNC(=O)c3ccc4c(c3)C3(C)CCN(CC5CC5)C(C4)C3C)cc2)cc1OC (racemic) with Mu-type opioid receptor (Homo sapiens, UniProt P35372)?
Response: 8.80
